Test system: HCT-116 colon
Assay: NCI-60 one-dose screen, 48 h
Conditions: 10 µM unless noted
About 83,000 compounds went through this panel and 20% of them were active in at least one assay; those are over-represented in the sample as a whole. The source made the active and inactive calls. The calls were made as follows: active = growth percent below 10; inactive = the rest.
Just give me one of these, please: 1 for active, 0 for inactive

COC(=O)CNS(=O)(=O)c1ccc2c(c1)Cc1cc(S(=O)(=O)NCC(=O)OC)ccc1-2 | 0
CCOC(C)(c1ccc(Cl)cc1)C1CCNCC1 (stereo not drawn) | 0
COc1ccc(-c2nnc(SCC(=O)Nc3ccc(C(=O)/C=C/c4ccc(Cl)cc4)cc3)n2-c2ccccc2)cc1 | 0
O=C(c1ccc(C(F)(F)F)c(Cl)c1)N(Cc1ccc(Cl)cc1)c1ccc(-c2cc(C(F)(F)F)[nH]n2)c(O)c1 | 1
O=C1C=CC(=O)N1CO | 0

Data request: Could you check what this test reported for "CC(C)[C@H](CN)NC[C@H](C)NS(=O)(=O)c1ccc(C(C)(C)C)cc1" ?
Data returned: 0

Data request: Please give the result for "COc1ccc(C(=O)/C=C/c2cn(-c3ccccc3)nc2-c2cccc(Nc3ccnc4cc(Cl)ccc34)c2)cc1" too.
Data returned: 0

Data request: Please give the result for "Cc1nn(-c2ccc(Cl)cc2)c(=O)n1CCN1CCOCC1" too.
Data returned: 0

Data request: Please give the result for "CCCc1n(Cc2ccc3ccccc3n2)cc[n+]1Cc1ccc2ccccc2n1" too.
Data returned: 0

Data request: Please give the result for "C=CCOc1c(Br)cc(Br)cc1Br" too.
Data returned: 0

Data request: Please give the result for "CCCCn1c(-c2ccc(F)cc2)nc2cc(OC)c(OC)cc2c1=O" too.
Data returned: 0

Data request: Please give the result for "COc1cc(Nc2ccnc3ccc(Br)cc23)cc(OC)c1OC" too.
Data returned: 0

Data request: Please give the result for COc1ccc2[nH]cc(C(c3ccc(Cl)cc3)N3CCCC3)c2c1 (stereo not drawn) too.
Data returned: 0

====

Tested on: NCI-H460 lung
Experiment: NCI-60 one-dose screen, 48 h
Settings: 10 µM unless noted
The panel holds about 83,000 compounds, 20% with a hit somewhere; the sample as a whole holds those more often. Calls of active or inactive are those of the source. Rule for the calls: active = growth percent below 10; inactive = the rest.
Just give me one of these, please: True for active, False for inactive

Example entries begin here.
COc1ccc([C@@H]2[C@@H](Oc3ccccc3)C(=O)N2c2cc(OC)c(OC)c(OC)c2)cc1F | True
COc1ccc(C2C=C(c3ccc(Cl)cc3)N=C3SC=CN32)cc1 (stereo unspecified) | False
COc1cc(C)c2c(=O)c3c(oc2c1)C(=O)c1c(O)c(OC)cc(O)c1C3=O | True

Data request: Could you check what this test reported for "O=c1cc(-c2ccc3c(c2)OCCO3)oc2cc(Cl)ccc12" ?
Data returned: True

Data request: Please give the result for "O=C1OC(c2ccc(-c3ccccc3)cc2)=C/C1=C/c1c(Cl)cccc1Cl" too.
Data returned: False

Data request: Please give the result for "CCOc1cccc(/C=N/NC(=O)c2ccc(Nc3ccnc(C(F)(F)F)c3)cc2)c1O" too.
Data returned: True

====

Test system: HOP-92 NSCLC
Assay: NCI-60 one-dose screen, 48 h (100 = growth as untreated, 0 = no growth, -100 = all killed)
Details: 10 µM unless noted
About 83,000 compounds went through this panel and 20% of them were active in at least one assay; those are over-represented in the sample as a whole. Activity calls are given as the source filed them. Rule for the calls: active = growth percent below 10; inactive = the rest.
We begin with a simple list: items and their reported growth.

Known results for molecules:
COc1cc(Nc2ccnc3ccc(Br)cc23)cc(OC)c1OC | 49% (inactive)
CC(=O)c1ccc(-n2c(-c3cc(-c4ccsc4)n[nH]3)n[nH]c2=S)cc1 | 89.9% (inactive)
COc1c(-c2cc(-c3ccc(C)o3)[nH]c(=O)n2)c(O)cc2occc12 | 67.3% (inactive)
O=C(O)c1cn(-c2ccccc2)nc1-c1ccc(O)cc1 | 85.5% (inactive)
CCCCNCC(O)c1cc(-c2ccc(C(F)(F)F)cc2)nc(-c2ccc(C(F)(F)F)cc2)c1 (centres undefined) | -86% (active)
CCC(C)C1NC(=O)c2nc(oc2-c2ccccc2)-c2csc(n2)-c2csc(n2)-c2nc(oc2C)-c2coc(n2)CNC(=O)C(C(C)CC)NC1=O (centres undefined) | -83.3% (active)
O=C1C2=C(C(=O)c3c(O)ccc(O)c31)N(c1ccc(N3CCOCC3)nc1)Cc1ccccc1O2 | -66.1% (active)
Oc1ccc(CCCCCCc2ccc(O)cc2)cc1 | 64% (inactive)

Moving on to another molecule below.
Data request: Tell me the measured growth of "Cc1ccc(Nc2nc(NCCO)c3ccccc3n2)cc1C" , please.
Data returned: 89.7% (inactive)
